# Assay method text: yeast display, Sf9 membrane polyspecificity reagent, FACS + sequencing; frameworks hold sequencing errors
Experimental endpoint: polyreactivity (PSR sort gate)

Solved entries:
Record sequence | Result
QVQLVESGGGLVQAGGSLRLSCAASGSTFLTYDMGWYRQAPGKERELVAAISGGGSTNYADSVKGRFTISRDNAKNTFYLQMNSLKPVDTAVYYCAAKASGNFYYYWGQGTQVTVSS | high polyreactivity
QVQLVESGGCLVQAGGSLRLSCAASGRTFRSNAMGWYRQAPGKERELVAAITIGGSTTYADSVKGRFTISRDNAKNTVYLQMISLKREDSAVYYCKARDYYPYDYWGKGTQVTVSS | high polyreactivity
QVQLVESGGGLVQAGGSLRLSCAASGSTFHRNAMGWSRQAPGKERELVAAISFSGGRTYYADSVKGRFTISRDNAKNTVNLQMNSLKPEDTAVYYCAAVTASPGSYPDDYWGQGTQVTVSS | low polyreactivity
QVQLVESGGGLVQAGGSLRLSCAASGYIFPYYTMGWYRQAPGKERELVAAITIGGSTYYADSVKGRFTISRDNAKNTVYFQMNSLKPVDTAVYYCAARSRYYDTRFDYWGQGTQVTVSS | low polyreactivity

Would you kindly look at the next entry?
input: Entry under review: QVQLVESGGCLVQAGGSLRLSCAASGSTFVYYAMGWYRQAPGKESELVAAITSGGSTYYADSVKGRFTISRDNAKNTVYLQMNSLKPEDTAVYYCATDYTWFGYRYDYWGQGTQVTVSS . Reported polyreactivity (PSR sort gate)?
output: low polyreactivity

---

# Assay method text: yeast display, Sf9 membrane polyspecificity reagent, FACS + sequencing; frameworks hold sequencing errors
Experimental endpoint: polyreactivity (PSR sort gate)

Consider the worked cases shown below.
Record sequence | Experimental endpoint | Result
QVQLVESGGGLVQAGGSLRLSCAASGRIFNQYGMGWYRQAPGKERELVAAIRSGDSTNYADSVKGRFTISRDNAKNTVYLQMNSLKPEDTAVYYCKAVPSQHDEFDYWGQGTQVTVSS | polyreactivity (PSR sort gate) | low polyreactivity
QVQLVESGGGLVQAGGSLRLSCAASGIIFRLNTMGWYRQAPGKERELVAAITSGGSTQYADSVKGRFTISRDNAKNTVYLQMNSLKPEDSAVYYCAAGHRANYWAWHFYYPGDFWGQGTQVTVSS | polyreactivity (PSR sort gate) | low polyreactivity
QVQLEESGGGLVQAGGSLRLSCAASVFPYYAMRWYRQATGKERELVAAITWSGADTYYADSVKGRFTISRDNAKNTVYLQMNSLKPEDTAVYYCAAEYSPIRDYEYWGQGTQVTVSS | polyreactivity (PSR sort gate) | low polyreactivity
QVQLVESGGGLVQAGGSLRLSCAASGITFTVNSMGWYRQAPAKERELVAAISNDGSTYYADSVKGRFTISRDNAKNSVYLQMNRLKTEDTAVYYCAADTWDVFGPYGYDYWGQGTQVTVSS | polyreactivity (PSR sort gate) | low polyreactivity
QVQLVESGGGLFQAGGSLRLSCAASGGTFNFYAMGWYRQAPGKERELVARIDSGVSTNYADTVKGRFTISRDNAKNTVYLQMNSLKPEDTAVYYCNAERYRSRRYPYRYLYYYWGQGTQVTVSS | polyreactivity (PSR sort gate) | high polyreactivity
QVQLVESGGGLVQAGGSLRLSCAASGSTFVYYAMVWYRQAPGKERELVAAITGSVDSTYYADSVKGRFTISRDNAKNTVYLQMNSVKPEDTAVYYCAADTYSTYWGQGTQVTVSS | polyreactivity (PSR sort gate) | low polyreactivity
QDQLVESGGGLVQAGGSLRLSCAASGFIFLNYTMGWYRQAPGKERELVAAISNGSDRTYYADSVKGRFTISRDKAKNTVYLQMNSLTPEDTAVYYCAKDRDFSSPPTESGFDYWGQGTQVTVSS | polyreactivity (PSR sort gate) | low polyreactivity
QVQLVESGGGLVQAGGSLRLSCAASGRIFPSYAMVWYIQAPGKEREMVATISYRGTSTYYADSVKGRFTISRDNAKNTVYLQMNSLKPEDTGVYYCNKATRHHFYYWGQGTQVTVSS | polyreactivity (PSR sort gate) | high polyreactivity
QVQLVESGGGLVQAGGSLRLSCAASGRTFWSYAMGWYRQAPGKEREFVAAISYSGSSTYADSVKGRFTISRDNAKNTVYLQMNSLKPEDTAVYYLLRGQGTQVTVSS | polyreactivity (PSR sort gate) | low polyreactivity
QDHLVESGGGLVQAGGSLRLSCAASGSIFGLYAMGWYRQSPGKERELVAAISFSGDTYYADSVKGRFTISRDNAKNTVYLQMNSLKPEDTAVYYCAAEDWYEYDYWGQGTQVTVSS | polyreactivity (PSR sort gate) | high polyreactivity

As a next step, examine the sequence that follows.
input: Which value of polyreactivity (PSR sort gate) has been reported for QVQLVESGGGLVQAGGSLRLSCAASGFTFHRYAMGWYRQAPGKERELVAAISSRGGSTYYADSVKGRFTISRDNAKNTVYLQMNSLKPEDTAVYYCAARWPHRYYSSYYGYDYWGQGTQVTVSS in the records?
output: high polyreactivity

---

# Assay method text: yeast display, Sf9 membrane polyspecificity reagent, FACS + sequencing; frameworks hold sequencing errors
Experimental endpoint: polyreactivity (PSR sort gate)

Below are worked cases with known answers.
Record sequence | Result
QVQLVESGGGLVQAGGILRLSCAPYGSIFSQNAMGWYRQAPGKERELVAAISSSGTRTYYADSVKARFTISRDNAQNTVYLQMNSLKPEDTAVYYSNKVHFLPRYFLRSDYWGQGTQVTVSS | high polyreactivity
QVQLVESRGGLVQAGGSLRLSCAASGSIFPFYAKGWYRQAPGKEREFVASISSGGSTNYADSVKGRFTISRDNAKNTVYLQMNSLKPEDTAVYYCNADVPYRWDTWFQVVYPESYDYWGQGTQVTVSS | low polyreactivity
QVQIVESGGGLVQAGGSLRLSCAASGYIFIVYTMGWYRQAPGKERELVAAISSGGITDYADSVKGRFTLSRDNAKNTLYIQMTRLKPEDTAVYYWGQGTQVTVSS | low polyreactivity
QVQLVESGGGLVQAGGSLRLSCAASGITSRFNAMGWYRQAPGKERELVAAISSRGTSTYYADSVKGRFTISRDNAKNTVYLQMNTLKPEDTAVYYCAVSQRAPKFPGDYWGQGPQVTVSS | high polyreactivity
QVQLVESGGGLVQAGGSLRLSCAASGRTFYGYPMGWYRQAPGKERELVAAISWSGGSTYYADSVKGRFTISRDNAKNTVYLQMNSLKPEDTAVYYCAAYTYSFRANHDYWGQGTQVTVSS | high polyreactivity

input: Which polyreactivity (PSR sort gate) value is on record for QVQLVESGGGLVQAGGSLRLSCAATGRIFHGYAMGWYRQAPGKERELVAAIDEDGGSTYYADSVKGRFTISRDNAKNTVYLQMNSLKPVDTAVYYCNADCSVRLDGFDYWGQGTQVTVSS ?
output: low polyreactivity

input: Tell me the measured polyreactivity (PSR sort gate) of QVQLVESGGGLVQAGGSLRLSCAASGRIFYHNVMGWYRQAPGKERELVAGIRSRGGSTSYADSVKGRFTISRDNAKNTVYLQMNSLKPEDTAVYYCATDTTLWYVLYDYWGQGTQVTVSS , please.
output: low polyreactivity

input: Return reported polyreactivity (PSR sort gate); argument: QVQLVESGGGLVQAGGSLRLSCAASGSTFYGYAMGWYRQAPGKERELVAAINWSGGRTYYADSVKGRFTISRDNAKNTVYLQMNSLKPEDTAVYYCAARGRYQPQFDYWGQGTQVTVSS
output: high polyreactivity

input: Requested field: polyreactivity (PSR sort gate). Item: QVQLVESGGGLVQAGGSLRLSCAASGSIFRYYTMGWYRQAPGKERELVASISRGGNTYYADSVKGRFTISRDNAKNTVYLQMNSLKPEDTAVYYCNVRLSYSYISQSDWNFDYWGQGTQVTVSS
output: low polyreactivity

input: Reported polyreactivity (PSR sort gate), sequence QVQLVESGGGLVQAGGSLRLSCAASGSTFAYYAMGWSRQAPGKERELVASISWRGGSTYYADSVKGRFTNSRDNAKNTVYLQMNSLKPEDTAVYYCAAGRFYIWSRSQEYDYWGQGTQVTVSS : ____
output: low polyreactivity

input: Look up polyreactivity (PSR sort gate): QFQLVESGGGLVQAGGSLRLSCAASGRIFGENARGWYSQATRKEREFVAVISISDASTYYADSVKGRFTITRDNAKNTVYLQMNSLKREDTAVDYCAADLTDFLYVASDYWGQGTQVTVSS
output: low polyreactivity

---

# Assay method text: yeast display, Sf9 membrane polyspecificity reagent, FACS + sequencing; frameworks hold sequencing errors
Experimental endpoint: polyreactivity (PSR sort gate)

Record excerpt, results attached:
Record sequence | polyreactivity (PSR sort gate)
QVQLVESGGGLVQAGGSLRLSCAPSGSTFVYYAMGWYRPAPGKERELVAAINRSGTRTYYADSVKGRFSISRDNAKNTVYLQMNSLKPEDTAVYYCDKAVQGKYGYWGQGTQVTVSS | high polyreactivity
QVQLVESGGGLVQAGGSLRLSCAPSGRTFKVNDMGWYRQAPGKERELVAAINYRGGRTYYADSVKGRFTISRDNAKNNFYLQMNSLKPEDTAFYYCNAQSGVVADDYWGQGTQVTVSS | high polyreactivity
QVQLVESAGGLVQAAGSLRLSCAASGSIFSTNAMGWYRQAPGKERELVAAITYRGRTFYADSVKGRFTISRDNAKNTVYLQMNSLKPEDTAVYYCNAVGISWFGYLKAYVYWGKGTQVTVSS | high polyreactivity
QVQLVESGGGLVQAGGSLRLSCAASGSIFASNAMGWYRQAPGKEREFVAAITWRTDRTYYADSVKGRFTISRDNAKNTVFLQMNSLKPEDTAVYYCAADTWFYRFYYWGQCTQVTVSS | high polyreactivity
QDQLVDSGGGLVQAGGSLRLICAASGRTYRKYAMGWYRQAPGKERELVADISWSGGSTYYANSVKGRFTISRDIAKNTVYLQMNSLKPEDTAVYYCAAVPVHTGSLYWGFTTGYDYWGQGTQVTVSS | low polyreactivity
QVQLVESGGGLVQAGGSLRLSCAASGITFNIYVMGWYRQAPGKERELVAAITDSGGTTYYADSVKGRFTISRDNAKNTVYLQMNSLKPEDTAVYYCAAEPFYSWWWWGDYWGQGTQVTVSS | high polyreactivity

input: Would you mind telling me what polyreactivity (PSR sort gate) value was observed for QVQLVESGGGLVQAGGSLRLSCAASGNIFLDYAMGWYRQAPGKERELVAANTSRVDDTYYADSVKGRFTISLDNAKNTVYLQMTSLKPEFTAVDYCAADYSVTLLIGGYYWFYAFDYWGQGTQVTVSS ?
output: low polyreactivity

input: Consider the sequence QVQLVESGGGLVQAGGSLRLSSAASGRIFGFNAMGWYRPAPGKERELVAAITWGVGSTYYADSVKGRFTISRDNAKNTVYLQMNSLKPEDTAVYYCAAVSYAAVYGFDYWGQGTQVTVSS and give its measured polyreactivity (PSR sort gate).
output: high polyreactivity

input: Requested read-out: polyreactivity (PSR sort gate). Entry: QVQLVESGGGLVQAGGSLRLSCAASGFIFQDYAMGWYRQAPGKERELVAAITQSSGSTYYADSVKGRFTISRDNAKNTVYLQMNSLKPEDTAVYYCNTAYDFSRQASYDYWGQVTQVTVSS
output: low polyreactivity

input: Query: polyreactivity (PSR sort gate); subject: QVQLVESGGGLVQAGGSLRLSCAASGSTFEYYAMGWDRQAPGKERELVAAISITGGSSYYADSVKGRFTISRDNAKNTVYLQMNSLKPEDTAVCYCAASVPLARRLGYPWRRAGYNYWGQGTQVTVSS
output: high polyreactivity

input: What does the data say about its polyreactivity (PSR sort gate)? Entry: QVQLVESGGGLVQAGASLRLSCAASGFILYYYAMGWYRQAPGKERELVAAISARGGSTYYADSVKGRFTISRDNAKNTVYLQMNSLKPVDTAVYYCKKAGGYTGYTRRYEYWGQGTQVTVSS
output: high polyreactivity
